# Tested on: LOX IMVI melanoma
# TEST_DESCRIPTION: NCI-60 one-dose screen, 48 h (100 = growth as untreated, 0 = no growth, -100 = all killed)
# CONDITION_NOTES: 10 µM unless noted
This is part of a sample that, as a whole, favours compounds with a hit. Of some 83,000 tested, about 20% had one in any assay. Active and inactive are the calls of the source. The calls were made as follows: active = growth percent below 10; inactive = the rest.
MEASUREMENT_LABEL: growth

[[record]]
compound = "COc1ccc(NC(=O)Nc2ccc3c(ccn3C(=O)c3cccc(F)c3)c2)cc1"
target_entity = "LOX IMVI melanoma"
recorded_measurement = "57% (inactive)"

[[record]]
compound = "NC(N)=Nc1ccc(Oc2cccc(NC(N)=Nc3ccc(Br)cc3)c2)cn1"
target_entity = "LOX IMVI melanoma"
recorded_measurement = "0.0918% (active)"

[[record]]
compound = "Cc1ccc(-n2cc(/C=N/NC(=O)c3nc(N)n[nH]3)c(-c3ccc(S(C)(=O)=O)cc3)n2)cc1"
target_entity = "LOX IMVI melanoma"
recorded_measurement = "90.2% (inactive)"

[[record]]
compound = "COc1ccc(-c2nn(-c3ccc(S(C)(=O)=O)cc3)cc2/C=N/O)cc1"
target_entity = "LOX IMVI melanoma"
recorded_measurement = "102% (inactive)"

[[record]]
compound = "Cc1ccc(C2=NN(C)C(=O)C3(CCCC3)C2)cc1"
target_entity = "LOX IMVI melanoma"
recorded_measurement = "100% (inactive)"

[[record]]
compound = "O=C(CSc1nc2ccccc2c(=O)n1-c1ccccc1)Nc1cccc(C(=O)/C=C/c2ccccc2Cl)c1"
target_entity = "LOX IMVI melanoma"
recorded_measurement = "103% (inactive)"

[[record]]
compound = "COc1cccc2c1CN(C(=O)c1ccc(O)c(C(=O)N3Cc4ccc(OCCC[P+](c5ccccc5)(c5ccccc5)c5ccccc5)cc4C3)c1)C2"
target_entity = "LOX IMVI melanoma"
recorded_measurement = "42.7% (inactive)"

[[record]]
compound = "COc1cc(OC)c(/C=C/S(=O)(=O)Cc2ccc(OC)c(NCC(=O)NO)c2)c(OC)c1"
target_entity = "LOX IMVI melanoma"
recorded_measurement = "8.14% (active)"

[[record]]
compound = "O=S(=O)(NCCNc1nccc(-n2cnc3ccccc32)n1)c1ccc(Cl)cc1"
target_entity = "LOX IMVI melanoma"
recorded_measurement = "93.5% (inactive)"

[[record]]
compound = "COc1ccc(-c2nc3ccc(-c4nnc(SCC(=O)Nc5ccc(C(=O)/C=C/c6ccc(Cl)cc6)cc5)o4)cc3[nH]2)cc1"
target_entity = "LOX IMVI melanoma"
recorded_measurement = "-29.9% (active)"

[[record]]
compound = "C#CCOC(=O)[C@@H]1CCCN1CC#C"
target_entity = "LOX IMVI melanoma"
recorded_measurement = "77.7% (inactive)"

[[record]]
compound = "CCn1c(SCC(=O)Nc2cccc(C(=O)/C=C/c3ccccc3Cl)c2)nc2ccccc2c1=O"
target_entity = "LOX IMVI melanoma"
recorded_measurement = "27.6% (inactive)"

[[record]]
compound = "Cc1cccc2c3c(sc12)C(c1ccc(F)cc1)C(C#N)=C(/N=C/c1ccc(Cl)cc1)O3 (centres undefined)"
target_entity = "LOX IMVI melanoma"
recorded_measurement = "9.59% (active)"

[[record]]
compound = "O=C(Nc1ccc(N=Cc2c(O)[nH]c3ccccc23)cc1)Nc1nccs1"
target_entity = "LOX IMVI melanoma"
recorded_measurement = "35.1% (inactive)"

[[record]]
compound = "Cn1cc(-c2nnc(N)nc2-c2c[nH]c3ccc(F)cc23)c2cc(F)ccc21"
target_entity = "LOX IMVI melanoma"
recorded_measurement = "65.4% (inactive)"

[[record]]
compound = "CC(=O)C1=C(C)NC(NN)=NC1c1cccc(Cl)c1 (centres undefined)"
target_entity = "LOX IMVI melanoma"
recorded_measurement = "111% (inactive)"

[[record]]
compound = "CC(C)(O)c1cncc(-c2ccc3ncnc(NCc4ccccc4)c3c2)c1"
target_entity = "LOX IMVI melanoma"
recorded_measurement = "57.2% (inactive)"

[[record]]
compound = "c1n[nH]cc1-c1nc2ccc3[nH]ncc3c2c2c1CCCC2"
target_entity = "LOX IMVI melanoma"
recorded_measurement = "18.8% (inactive)"

[[record]]
compound = "CC(=O)c1cc(C(=O)c2ccc(Br)cc2)n2cc(C)cc(C)c12"
target_entity = "LOX IMVI melanoma"
recorded_measurement = "86.3% (inactive)"

[[record]]
compound = "CC(C)(C)n1cc(-c2ccnc(NCCCNS(=O)(=O)c3cccc(F)c3)n2)c(-c2ccc(Cl)c(O)c2)n1"
target_entity = "LOX IMVI melanoma"
recorded_measurement = "96.4% (inactive)"

[[record]]
compound = "NC(N)=Nc1ccc(Oc2cccc(Nc3ccc(Cl)cc3)c2)cn1"
target_entity = "LOX IMVI melanoma"
recorded_measurement = "-96.9% (active)"

[[record]]
compound = "CCCCCCCn1cc2c(NCCc3ccccc3)ncnc2n1"
target_entity = "LOX IMVI melanoma"
recorded_measurement = "117% (inactive)"

[[record]]
compound = "CC1(C)CC[C@]2(C(=O)N3CCOCC3)CC[C@]3(C)C(=CC[C@@H]4[C@@]5(C)C/C(=C/c6ccco6)C(=O)C(C)(C)[C@@H]5CC[C@]43C)[C@@H]2C1"
target_entity = "LOX IMVI melanoma"
recorded_measurement = "63.9% (inactive)"

[[record]]
compound = "C#Cc1nc(C(C)=O)cs1"
target_entity = "LOX IMVI melanoma"
recorded_measurement = "94.7% (inactive)"

[[record]]
compound = "CC(C)(C)n1nnnc1C(Nc1cccc2c1OCO2)c1cc2cccc3ccc4cccc1c4c32 (centres undefined)"
target_entity = "LOX IMVI melanoma"
recorded_measurement = "86.7% (inactive)"

[[record]]
compound = "COc1cc(Nc2c(C#N)cnn3cc(-c4cnn(CC(C)(C)O)c4)cc23)ccc1Cl"
target_entity = "LOX IMVI melanoma"
recorded_measurement = "31% (inactive)"

[[record]]
compound = "COc1ccc(/C=C(/C)c2ccc3ccc(OC)cc3[o+]2)c(O)c1"
target_entity = "LOX IMVI melanoma"
recorded_measurement = "-15.8% (active)"

[[record]]
compound = "Nc1nc(Nc2ccccc2SSc2ccccc2Nc2nc(N)nc(-c3ccc4ccccc4c3)n2)nc(-c2ccc3ccccc3c2)n1"
target_entity = "LOX IMVI melanoma"
recorded_measurement = "-70.7% (active)"

[[record]]
compound = "O=c1c2ccccc2nc(COc2ccccc2)n1NS(=O)(=O)c1ccc(Cl)cc1"
target_entity = "LOX IMVI melanoma"
recorded_measurement = "83.6% (inactive)"

[[record]]
compound = "NC(N)=Nc1ccc(Oc2cccc(Nc3ccc(Br)c(C(F)(F)F)c3)c2)cn1"
target_entity = "LOX IMVI melanoma"
recorded_measurement = "-87.6% (active)"

[[record]]
compound = "Cc1ccc2sc3c(c2c1)OC(N)=C(C#N)C3c1ccc(Cl)cc1 (centres undefined)"
target_entity = "LOX IMVI melanoma"
recorded_measurement = "86.9% (inactive)"

[[record]]
compound = "O=C(NNc1nc2cc(F)c(F)cc2n2c(CN3CC4CNCC4C3)ccc12)c1cnccn1 (centres undefined)"
target_entity = "LOX IMVI melanoma"
recorded_measurement = "2.25% (active)"

[[record]]
compound = "COc1cccc(/C=C(/C)c2ccc3cccc(OC)c3[o+]2)c1O"
target_entity = "LOX IMVI melanoma"
recorded_measurement = "127% (inactive)"

[[record]]
compound = "CC(c1ccccc1)N1CSc2nc3ncncc3n2C1 (centres undefined)"
target_entity = "LOX IMVI melanoma"
recorded_measurement = "10.1% (inactive)"

